Provide the reported Neutralization IC50 (µg/ml), Live Virus WT of each item.
Target: Spike of live SARS-CoV-2 WT virus (SARS-CoV-2, UniProt P0DTC2 14-1273)
Test: cell-based or functional assay
Answers are plain numbers, in µg/mL.

>>> result_value("1250D2 (antibody, V domains shown, Recombinant human IgG1) VH: QVQLVQSGAEVKKPGASMKVSCKASGFTFSDYYMHWVRQAPRQGLEWMGLINPSGSGTAYAQNFQGRVTLTRDTSTSTLYMEMGSLTSDDTAVYYCARMDSSGSYDHWGQGTLVTVSS VL: EIVLTQSPGTLSLSPGDRATLSCRASQTIRISYLAWYQQKPGQAPRLLVYGPSIRATGIPDRFSASGSGTDFTLTISRLEPEDFAVYYCQHYGSSPPRYTFGQGTKLEIK")
2.36

Continue with the binder presented below.
Enquiry: Can you share its Neutralization IC50 (µg/ml), Live Virus WT? I mean this binder: 1212C2 (antibody, V domains shown) VH: QVQLVQSGAEVKKPGASVKVSCKASGYIFTDYFIHWVRQAPGQGLEWMGWINPNSGGTKYAQKFQGRVTMTRDTSISTVYMELSRLRSDDTAVHYCTRDLPLRTLYDSYGFDSWGQGTLVTVSS VL: LPVLTQPASVSGSPGQSITISCTGTSSDVGSYNLVSWYQQHPGKAPKLMIYDVSKRPSGVSNRFSGSKSGNTASLTISGLQAEDEADYYCCSYAGNSIVFFGGGTKLTVL
Return: 0.003
